# tested target: BRD4 BD2 (Homo sapiens, UniProt O60885, Y97A)
# Construct: BRD4 (1-477) (Y97A) and (Y390A); made in house; host or cells: E. coli (pET15b vector)
# method notes: BRD4 BD2 TR-FRET competition assay
# Type: binding
# measurement parameters: TR-FRET competition with Reference Compound X; read-out: pIC50 in the BRD4 BD2 assay (converted)
measurement name: IC50 (µM)
All answers are understood in µM, so give the number only.

Exercise: Provide BRD4 BD2 (Homo sapiens, UniProt O60885, Y97A) IC50 reading for CNC(=O)c1cc(C(=O)Nc2cn[nH]c2)cc([C@@H](C)c2ccccc2)n1 [Example 16] .
Key: 0.01

Exercise: Provide BRD4 BD2 (Homo sapiens, UniProt O60885, Y97A) IC50 reading for CNC(=O)c1cc(C(=O)Nc2cn[nH]c2)cc(C(OC)c2ccccc2)n1 (single isomer, unassigned) [Example 55] .
Key: 0.02

Exercise: Provide BRD4 BD2 (Homo sapiens, UniProt O60885, Y97A) IC50 reading for CNC(=O)c1cc(C(=O)Nc2cn[nH]c2)cc(Cc2ccccc2)n1 [Example 12] .
Key: 0.02

Exercise: Provide BRD4 BD2 (Homo sapiens, UniProt O60885, Y97A) IC50 reading for CNC(=O)c1cc(C(=O)Nc2cnn(C)c2)cc(Cc2ccccc2)n1 [Example 11] .
Key: 0.0158
